Recorded binding signal by entry
Target: OsSMF1 (Oryza sativa, UniProt Q6ZLB0 1-436)
Sequence: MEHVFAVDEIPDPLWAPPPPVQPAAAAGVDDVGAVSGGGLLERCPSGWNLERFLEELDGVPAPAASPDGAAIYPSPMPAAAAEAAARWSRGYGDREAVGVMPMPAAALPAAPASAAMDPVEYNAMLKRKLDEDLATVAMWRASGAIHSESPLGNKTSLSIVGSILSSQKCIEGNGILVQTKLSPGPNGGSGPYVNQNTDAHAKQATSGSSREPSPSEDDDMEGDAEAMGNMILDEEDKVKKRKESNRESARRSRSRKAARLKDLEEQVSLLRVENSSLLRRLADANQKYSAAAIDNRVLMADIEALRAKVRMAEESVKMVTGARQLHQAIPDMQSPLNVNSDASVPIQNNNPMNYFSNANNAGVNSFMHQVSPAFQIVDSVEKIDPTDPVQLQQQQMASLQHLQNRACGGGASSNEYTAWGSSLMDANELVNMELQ
Experiment: protein-binding microarray (RPBM); PBS, 2% BSA, 51.3 ng/ul salmon testes DNA, 50 uM zinc acetate, 200 nM TF, 25 C, 1 h; high values mean tight binding
Conditions: protein: recombinant; tags: N-terminal polyhistidine and DsRed monomer fusion (pET32a); chain copies: 2; label: CyDye5-dUTP incorporated in the synthesized complementary strand; 3' TTTTT single-stranded linker to array surface; dsDNA, one strand shown
Over roughly 39,000 sequences, “fluorescence intensity (a.u.)” has its median near 4,300; the highest 2% begin near 39,000. Shown is part of a subset that was picked to be rich in the highest values.

Example entries and their recorded answers appear below.
{"chain sequence": "TCAGCTGGCATGCATGGCAACATATATATGGCTGGAAGTACGGAGTCACCTAGTGCAG", "observed value": "40000 fluorescence intensity (a.u.)"}
{"chain sequence": "TCCATACATTATTGACGTAATCATAAATATACATCCATGTCGGAGTCACCTAGTGCAG", "observed value": "3360 fluorescence intensity (a.u.)"}
{"chain sequence": "TTGATGGAGATGGGAGTTGGTGCGGATGTCCTTGTCGCCCCGGAGTCACCTAGTGCAG", "observed value": "3200 fluorescence intensity (a.u.)"}
{"chain sequence": "CCTACACATATATATATATATATGCATGGCAACTTGGCAACGGAGTCACCTAGTGCAG", "observed value": "3340 fluorescence intensity (a.u.)"}
{"chain sequence": "TGGTGCTGGTCCTCAACATGCATGTGCTATGGCAAGATCCCGGAGTCACCTAGTGCAG", "observed value": "42800 fluorescence intensity (a.u.)"}
{"chain sequence": "GCGAAGCAACATGCTGCTGCTCAAGAGGAGGAAGATGGTGCGGAGTCACCTAGTGCAG", "observed value": "3350 fluorescence intensity (a.u.)"}
{"chain sequence": "TGGTGCTGTGGTGGTGGTGGTCATGGACTCATTGGGCATGCGGAGTCACCTAGTGCAG", "observed value": "3180 fluorescence intensity (a.u.)"}
{"chain sequence": "GTACGTCGGAAGCAACGGCAGACATGACAGCATATGGCCTCGGAGTCACCTAGTGCAG", "observed value": "15900 fluorescence intensity (a.u.)"}

Could you now consider this next sequence?
# input Form field: reported binding signal of CGTACTCATCTCCTACACATCATCTCCAATTAATCTAATTCGGAGTCACCTAGTGCAG
# output 3180 fluorescence intensity (a.u.)

====

Molecular target: OsSMF1 (Oryza sativa, UniProt Q6ZLB0 1-436)
Sequence: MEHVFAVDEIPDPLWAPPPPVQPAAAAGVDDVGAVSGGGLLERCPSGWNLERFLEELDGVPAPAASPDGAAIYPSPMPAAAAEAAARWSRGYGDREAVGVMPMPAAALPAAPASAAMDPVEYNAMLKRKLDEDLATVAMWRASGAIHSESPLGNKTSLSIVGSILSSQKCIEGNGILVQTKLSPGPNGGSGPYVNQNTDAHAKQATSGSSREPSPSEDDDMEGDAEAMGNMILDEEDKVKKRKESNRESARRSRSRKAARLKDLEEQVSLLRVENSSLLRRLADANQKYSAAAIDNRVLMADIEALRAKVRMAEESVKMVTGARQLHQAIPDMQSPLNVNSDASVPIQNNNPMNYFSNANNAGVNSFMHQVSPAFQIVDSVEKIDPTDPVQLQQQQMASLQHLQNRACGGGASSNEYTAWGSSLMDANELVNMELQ
Experiment: protein-binding microarray (RPBM); PBS, 2% BSA, 51.3 ng/ul salmon testes DNA, 50 uM zinc acetate, 200 nM TF, 25 C, 1 h; high values mean tight binding
Settings: protein: recombinant; tags: N-terminal polyhistidine and DsRed monomer fusion (pET32a); chain copies: 2; label: CyDye5-dUTP incorporated in the synthesized complementary strand; 3' TTTTT single-stranded linker to array surface; dsDNA, one strand shown
In all, about 39,000 sequences were measured (“fluorescence intensity (a.u.)”: median about 4,300, highest 2% from about 39,000 on). What follows is part of a selection rich in the highest values, with near analogues and random picks from the rest.
readout kind: binding signal

Example entries and their recorded answers appear below.
{"chain sequence": "GATTAAATGGAAGAGAGAATGAATAATTAAGATTTAAAGACGGAGTCACCTAGTGCAG", "observed value": "27400 fluorescence intensity (a.u.)"}
{"chain sequence": "GATATCACAACCTGACCCACATTAGTCACACGCACTCACACGGAGTCACCTAGTGCAG", "observed value": "3790 fluorescence intensity (a.u.)"}
{"chain sequence": "TATGTGTTGACACCAAGGCTGACTCGGTTTTCGTCAAGGTCGGAGTCACCTAGTGCAG", "observed value": "6530 fluorescence intensity (a.u.)"}
{"chain sequence": "GCTGAGCAGGAGAGGGGCGCCGATCTCCATCCGGCGAGCACGGAGTCACCTAGTGCAG", "observed value": "5450 fluorescence intensity (a.u.)"}

# input Form field: reported binding signal of TGAAAATCGCATACTAATTAGCTATTAGTCATGAGCTCTTCGGAGTCACCTAGTGCAG
# output 3590 fluorescence intensity (a.u.)

# input Form field: reported binding signal of CATCGAGAGGCTCCCGAGCATGGCCGAGATCGCCGAGGAGCGGAGTCACCTAGTGCAG
# output 3500 fluorescence intensity (a.u.)

# input Form field: reported binding signal of TTAAAACGCATCAAGATTATAAGAGCCAAGAGAAATTGCACGGAGTCACCTAGTGCAG
# output 3520 fluorescence intensity (a.u.)

# input Form field: reported binding signal of CCGAGTGACGATGCAGCTGAGTCGGAGCGCAGCACGACTTCGGAGTCACCTAGTGCAG
# output 4290 fluorescence intensity (a.u.)

# input Form field: reported binding signal of GCGAGCTCCTGGAGGCGGCGAGGGCGCCGGAGTTCGCGGGCGGAGTCACCTAGTGCAG
# output 37200 fluorescence intensity (a.u.)

====

Recorded binding signal by entry
Target: OsSMF1 (Oryza sativa, UniProt Q6ZLB0 1-436)
Sequence: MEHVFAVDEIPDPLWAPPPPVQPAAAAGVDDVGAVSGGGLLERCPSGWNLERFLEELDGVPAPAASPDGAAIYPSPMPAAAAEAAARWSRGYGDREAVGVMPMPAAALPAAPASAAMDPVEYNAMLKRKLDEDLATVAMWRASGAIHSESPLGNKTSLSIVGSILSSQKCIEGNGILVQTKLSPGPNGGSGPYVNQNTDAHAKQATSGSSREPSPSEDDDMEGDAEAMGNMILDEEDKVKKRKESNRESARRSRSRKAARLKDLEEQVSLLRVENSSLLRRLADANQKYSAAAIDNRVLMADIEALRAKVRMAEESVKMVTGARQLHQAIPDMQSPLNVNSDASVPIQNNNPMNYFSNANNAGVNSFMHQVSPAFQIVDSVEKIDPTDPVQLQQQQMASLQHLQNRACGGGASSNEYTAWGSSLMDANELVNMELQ
Test: protein-binding microarray (RPBM); PBS, 2% BSA, 51.3 ng/ul salmon testes DNA, 50 uM zinc acetate, 200 nM TF, 25 C, 1 h; high values mean tight binding
Conditions: protein: recombinant; tags: N-terminal polyhistidine and DsRed monomer fusion (pET32a); chain copies: 2; label: CyDye5-dUTP incorporated in the synthesized complementary strand; 3' TTTTT single-stranded linker to array surface; dsDNA, one strand shown
Over roughly 39,000 sequences, “fluorescence intensity (a.u.)” has its median near 4,300; the highest 2% begin near 39,000. The list comes from a sample in which the highest values are over-represented; it also holds close analogues and randomly drawn sequences.

Example entries and their recorded answers appear below.
{"chain sequence": "GAGTATTTGGCATGGTTGTAGCGTTGGTGACCTGAGTCATCGGAGTCACCTAGTGCAG", "binding signal": "7270 fluorescence intensity (a.u.)"}
{"chain sequence": "ACACGCCACGCCGCCACCTCCACTTCGTTAACCCTTCTCCCGGAGTCACCTAGTGCAG", "binding signal": "5410 fluorescence intensity (a.u.)"}
{"chain sequence": "GCCTAACCCTAACCCTAGCCGCCACCGCTCAACCGCCTCCCGGAGTCACCTAGTGCAG", "binding signal": "65100 fluorescence intensity (a.u.)"}

Could you now consider this next sequence?
# input Form field: reported binding signal of CGCGGCGGCGGCGGCGCGAAGGCACGTGGCACGGCGCCGCCGGAGTCACCTAGTGCAG
# output 3420 fluorescence intensity (a.u.)
